# experimental_system: full length human TREX1 (Homo sapiens)
# Construct: N-terminally His-Tev tagged full length human TREX1; made in house; host or cells: E. coli
# Sequence (Q9NSU2 whole entry): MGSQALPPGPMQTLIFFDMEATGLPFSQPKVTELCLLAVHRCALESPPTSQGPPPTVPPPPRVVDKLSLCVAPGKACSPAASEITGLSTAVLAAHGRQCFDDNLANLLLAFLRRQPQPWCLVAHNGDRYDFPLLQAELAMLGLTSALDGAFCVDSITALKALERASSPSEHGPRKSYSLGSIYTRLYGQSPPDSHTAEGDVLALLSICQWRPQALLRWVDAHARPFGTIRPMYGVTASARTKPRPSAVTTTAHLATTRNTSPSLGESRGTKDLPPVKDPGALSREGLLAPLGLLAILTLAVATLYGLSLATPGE
# assay_method_text: hTREX1 Biochemical Assay (fluorescence, dsDNA substrate degradation)
# condition_context: biochemical, read-out: hTREX1 IC50
# Method: Degradation of the dsDNA liberates free fluorophore to produce a fluorescent signal. Specifically, 7.5 μL of N-terminally His-Tev tagged full length human TREX1 (expressed in E. coli and purified in house) in reaction buffer (50 mM Tris, 150 mM NaCl, 2 mM DTT, 0.1 mg/mL BSA, 0.01% (w/v) Tween-20, 5 mM MgCl2, pH 7.4) was added to a 384-well Black ProxiPlate Plus (PerkinElmer) which already contained compound (150 nL) at varying concentrations as a 10 point dose-response in DMSO. […]
pIC50: −log10 of the molar value.
Recorded pIC50 by entry
experimental_endpoint: pIC50

> print(dat)
                                    molecule        result
 1  COCCn1cc(C(c2ccccc2C#N)C(C)c2nc(C(=O)Nc3cnoc3)c(O)c(=O)n2C)cn1 (single isomer, unassigned) [Example 9 D1E2]        < 8.00
 2  Cc1nn(C)cc1C(c1ccccc1C#N)C(c1nc(C(=O)Nc2cnoc2)c(O)c(=O)n1C)C(F)(F)F (single isomer, unassigned) [Example 41 D2E2]        < 8.00
 3  CC(c1nc(C(=O)Nc2cnoc2)c(O)c(=O)n1C)C(c1cnn(C)c1)c1cc(F)ccc1Cl (single isomer, unassigned) [Example 61 D2E1]        < 8.00
 4  CCn1ncc(C(c2ccccc2C#N)C(C)c2nc(C(=O)Nc3cnoc3)c(O)c(=O)n2C)c1C (single isomer, unassigned) [Example 68 D2E1]        > 9.00
 5  CC(c1nc(C(=O)Nc2cnoc2)c(O)c(=O)n1C)C(c1ccccc1)c1cccnc1C#N (single isomer, unassigned) [Example 155 D1E2]  8.00 to 9.00
 6  Cn1cc(C(c2ccccc2C#N)C(c2nc(C(=O)Nc3cnoc3)c(O)c(=O)n2C)C(F)(F)F)cn1 (single isomer, unassigned) [Example 40 D2E1]        < 8.00
 7  CC(c1nc(C(=O)Nc2cnoc2)c(O)c(=O)n1C)C(c1cnn(C)c1)c1ccc(F)cc1C#N (single isomer, unassigned) [Example 15 D1E2]        < 8.00
 8  Cc1nn(C)cc1C(c1ccc(F)cc1C#N)C(C)c1nc(C(=O)Nc2cnoc2)c(O)c(=O)n1C (single isomer, unassigned) [Example 56 D2E1]  8.00 to 9.00
 9  CC(c1nc(C(=O)Nc2cnoc2)c(O)c(=O)n1C)C(c1cnn(C)c1)c1cc(Cl)ccc1C#N (single isomer, unassigned) [Example 26 D1E1]        < 8.00
10  CC(c1nc(C(=O)Nc2cnoc2)c(O)c(=O)n1C)C(c1ccccc1C#N)c1cn(C)nc1C#N (single isomer, unassigned) [Example 10 D2E1]        > 9.00
11  CC(c1nc(C(=O)Nc2cnoc2)c(O)c(=O)n1C)C(c1cnn(C)c1)c1cc(Cl)ccc1C#N (single isomer, unassigned) [Example 26 D2E2]        < 8.00
12  COCCn1cc(C(c2ccccc2C#N)C(C)c2nc(C(=O)Nc3cnoc3)c(O)c(=O)n2C)cn1 (single isomer, unassigned) [Example 9 D2E2]        < 8.00
13  Cc1cnc(C)c(C(c2ccccc2C#N)C(C)c2nc(C(=O)Nc3cnoc3)c(O)c(=O)n2C)n1 (single isomer, unassigned) [Example 82 D2E1]  8.00 to 9.00
14  Cc1cn(C)nc1C(c1ccccc1C#N)C(C)c1nc(C(=O)Nc2cnoc2)c(O)c(=O)n1C (single isomer, unassigned) [Example 64 D2E2]        < 8.00
15  COCCn1ncc(C(c2cc(F)ccc2C#N)C(C)c2nc(C(=O)Nc3cnoc3)c(O)c(=O)n2C)c1C (single isomer, unassigned) [Example 104 D1E2]        < 8.00
16  CC(c1nc(C(=O)Nc2cnoc2)c(O)c(=O)n1C)C(c1cnn(CCN2CCOCC2)c1)c1ccccc1C#N (single isomer, unassigned) [Example 20 D2E2]        < 8.00
17  Cc1ncc(C(c2ccccc2Cl)C(C)c2nc(C(=O)Nc3cnoc3)c(O)c(=O)n2C)nc1C (single isomer, unassigned) [Example 125 D2E2]        < 8.00
18  CC(c1nc(C(=O)Nc2cnoc2)c(O)c(=O)n1C)C(c1cnn(C)c1)c1cc(F)c(F)cc1Cl (single isomer, unassigned) [Example 28 D1E1]        > 9.00
19  CC(c1nc(C(=O)Nc2cnoc2)c(O)c(=O)n1C)C(c1nnn(C)n1)c1ccccc1C#N (single isomer, unassigned) [Example 79 D2E2]        < 8.00
20  CC(c1nc(C(=O)Nc2cnoc2)c(O)c(=O)n1C)C(c1cnn(C)c1)c1cccnc1C#N (single isomer, unassigned) [Example 7 D1E2]        < 8.00
21  Cc1cnc(C)c(C(c2ccccc2Cl)C(C)c2nc(C(=O)Nc3cnoc3)c(O)c(=O)n2C)n1 (single isomer, unassigned) [Example 120 D1E1]        > 9.00
22  CC(c1nc(C(=O)Nc2cnoc2)c(O)c(=O)n1C)C(c1cnccn1)c1ccccc1C#N (single isomer, unassigned) [Example 66 D1E1]        > 9.00
23  COCCn1cc(C(c2cc(F)ccc2C#N)C(C)c2nc(C(=O)Nc3cnoc3)c(O)c(=O)n2C)c(C)n1 (single isomer, unassigned) [Example 103 D1E1]        < 8.00
